# ASSAY TEXT: gradient 5% acetonitrile 3 min, to 50% in 2 min, to 85% in 15 min, held 3 min, 100 µL/min
# ASSAY CONDITIONS: column: Zorbax Extend-C18 2.1 x 50 mm; eluents: water / acetonitrile, 0.1% formic acid
QUANTITY: RP-LC retention time (s)
Enter your answer as a number in s; do not include the unit.

CN(C)c1ccc(C(=O)N2CCCC2c2nc(-c3ccccc3)no2)cc1 (stereo not given); 986
CCCC1c2nccn2CCCN1C(=O)CCc1c(C)noc1C (stereo not given); 595
CCCOc1nc2ccccc2nc1N1CCCC(C(=O)NCc2cccc(C)c2)C1 (stereo not given); 1220
Cc1cc(=O)n(CC(=O)NCc2ccc(F)c(Cl)c2)c(N2CCCCC2)n1; 716
O=C(NCCCN1CCOCC1)C1c2ccccc2C(=O)N(C2CCCC2)C1c1cccs1 (stereo not given); 646
O=C(Cn1cc(-c2ccccc2)c2ncn(C3CC3)c(=O)c21)NCc1ccc2c(c1)OCO2; 852
CCCN1C(=O)c2cc(S(=O)(=O)NCc3cccs3)ccc2Oc2cccnc21; 988
COc1ccc(C)cc1NS(=O)(=O)c1ccc2c(c1)CCCC(=O)N2; 709

*Q* Given the entry CCOC(=O)c1ccc(NC(=O)c2ccc(=O)n(C)n2)cc1 , report its measured RP-LC retention time.
*A* 693

*Q* Given the entry O=C(c1ccc(F)c(F)c1)N1CCN(S(=O)(=O)c2cc3c4c(c2)CCC(=O)N4CCC3)CC1 , report its measured RP-LC retention time.
*A* 807

*Q* Given the entry c1cc(-c2noc(C3CCC3)n2)cc(N2CCOCC2)n1 , report its measured RP-LC retention time.
*A* 804

*Q* Given the entry Cn1c(C2CCN(C(=O)Nc3cc(F)ccc3F)CC2)cc(=O)n2nccc12 , report its measured RP-LC retention time.
*A* 695

*Q* Given the entry Cn1cnc2cc(-c3noc(CNC(=O)c4ccco4)n3)ccc21 , report its measured RP-LC retention time.
*A* 585

*Q* Given the entry COc1ccc(NC(=O)N2CCC3(CC2)Nc2ccccc2-n2cccc23)c(OC)c1 , report its measured RP-LC retention time.
*A* 1000

*Q* Given the entry CC1=C(c2ccccc2)S(=O)(=O)N=C1N1CCCN(C(=O)c2ccoc2)CC1 , report its measured RP-LC retention time.
*A* 728

---

# ASSAY TEXT: gradient 5% acetonitrile 3 min, to 50% in 2 min, to 85% in 15 min, held 3 min, 100 µL/min
# ASSAY CONDITIONS: column: Zorbax Extend-C18 2.1 x 50 mm; eluents: water / acetonitrile, 0.1% formic acid
RP-LC retention time strictly less than 700 s = criterion met. Otherwise criterion not met.

These recorded examples may help you get a feel for the data.
N#Cc1ccc(-c2nc(-c3ccc4c(c3)nnn4CCN3CCCCC3)no2)cc1; criterion met
COc1ccc(C2OC(c3cc(OC)c(OC)c(OC)c3)=NN2C(C)=O)c(OC)c1 (stereo not drawn); criterion not met
CCc1noc(NC(C)=O)c1-c1ccc(C)c(S(=O)(=O)Nc2ccc(C)c(C)c2)c1; criterion not met
Cc1ccccc1N1CCN(S(=O)(=O)c2ccc(-c3nnc(C4CC4)o3)o2)CC1; criterion not met
CN(C)c1ccc(CNC(=O)CCc2c(-c3ccc(Cl)cc3)nc3ccccn23)cc1; criterion met
COC(=O)c1ccc2c(=O)n(-c3ccc(C)cc3)c(N3CCCCCC3)nc2c1; criterion not met

Now look at this one.
*Q* Item CCn1cnc2cc(CNC(=O)c3ccc(C(F)(F)F)cc3)ccc21 : RP-LC retention time beneath 700 s, strictly?
*A* criterion met
